Test system: Alopecurus myosuroides (ALOMY)
Experiment: Pre-emergence herbicidal activity, glasshouse pot test
Format: in vivo
Details: Alopecurus myosuroides, 312 h; Rate 250 g/ha; pre-emergence spray; evaluated after 13 days; read-out: Pre-emergence activity ALOMY (100=total damage to plant; 0=no damage to plant)
pest or weed control at 250 g/ha by entry:
MEASUREMENT_TYPE: pest or weed control at 250 g/ha (%)

> print(dat)
                             compound.string  output.unit  obs.value
 1  CCc1ccc(Oc2cccc(F)c2)cc1C1=C(O)C(C)(C)OC(C)(C)C1=O            %          0
 2  CCc1ccc(Oc2nc3ccc([N+](=O)[O-])cc3s2)cc1C1=C(O)[C@H]2CC[C@H](C2)C1=O            %         90
 3  CCc1ccc(Oc2ccc(Cl)cc2C#N)cc1C1=C(O)C(C)(C)OC(C)(C)C1=O            %         20
 4  CCc1ccc(Oc2ccc(C(F)(F)F)c(Cl)c2)cc1C1=C(O)C(C)(C)OC(C)(C)C1=O            %         60
 5  CCc1ccc(Oc2cc(Cl)ncn2)cc1C1=C(O)C(C)(C)OC(C)(C)C1=O            %         40
 6  CCc1ccc(Oc2ccc(C(F)(F)F)cn2)cc1C1=C(O)C(C)(C)OC(C)(C)C1=O            %        100
 7  CCc1ccc(Oc2ccc(C#N)c(Cl)c2)cc1C1=C(O)C(C)(C)OC(C)(C)C1=O            %        100
 8  CCc1ccc(Oc2cc(Cl)cc(Cl)n2)cc1C1=C(O)C(C)(C)OC(C)(C)C1=O            %         10
 9  CCc1ccc(Oc2ccc([N+](=O)[O-])c(Cl)c2)cc1C1=C(O)[C@H]2CC[C@H](C2)C1=O            %         50
10  CCc1ccc(Oc2ccc([N+](=O)[O-])c(C(F)(F)F)c2)cc1C1=C(O)C(C)(C)OC(C)(C)C1=O            %          0
11  CCc1ccc(Oc2nc(F)c(Cl)cc2Cl)cc1C1=C(O)C(C)(C)OC(C)(C)C1=O            %         20
12  CCc1ccc(Oc2ccc(Br)c(Cl)c2)cc1C1=C(O)CC(C)(C)CC1=O            %         30
13  CCc1ccc(Oc2ccc(C(F)(F)F)cc2Br)cc1C1=C(O)C(C)(C)OC(C)(C)C1=O            %        100
14  CCc1ccc(Oc2nc3ccc(Cl)cc3s2)cc1C1=C(O)CC(C)(C)CC1=O            %        100
15  CCc1ccc(Oc2ccc(C#N)c(C(F)(F)F)c2)cc1C1=C(O)C(C)(C)OC(C)(C)C1=O            %         70
16  CCc1ccc(Oc2nc3cc(Cl)ccc3s2)cc1C1=C(O)[C@@H]2CC[C@](C)(C1=O)C2(C)C            %         60

###

System: Alopecurus myosuroides (ALOMY)
Assay: Post-emergence herbicidal activity, glasshouse pot test
Assay type: in vivo
Conditions: Alopecurus myosuroides, 312 h, rate 250 g/ha, evaluated after 13 days, glasshouse, read-out: Post-emergence activity ALOMY (100=total damage to plant; 0=no damage to plant)
Procedure: Seeds of a variety of test species were sown in standard soil in pots. […] After 13 days for pre and post-emergence, the test was evaluated (100=total damage to plant; 0=no damage to plant). […]
pest or weed control at 250 g/ha by entry:
MEASUREMENT_TYPE: pest or weed control at 250 g/ha (%)

> print(dat)
                                   compound                     test.system  obs.value
1  CCc1ccc(Oc2nc(F)c(Cl)c(Cl)c2Cl)cc1C1=C(O)C(C)(C)OC(C)(C)C1=O [Example A-60]  Alopecurus myosuroides (ALOMY)          0
2  CCc1ccc(Oc2ccc(OC)nn2)cc1C1=C(O)C(C)(C)OC(C)(C)C1=O [Example A-124]  Alopecurus myosuroides (ALOMY)         10
3  CCc1ccc(Oc2ccc3cc(Cl)ccc3n2)cc1C1=C(O)CC2(CCOCC2)CC1=O [Example A-191]  Alopecurus myosuroides (ALOMY)        100
4  CCc1ccc(Oc2nc3c(Cl)cccc3s2)cc1C1=C(O)C(C)(C)OC(C)(C)C1=O [Example A-193]  Alopecurus myosuroides (ALOMY)         80

###

pest or weed control at 250 g/ha by entry:
Tested on: Alopecurus myosuroides (ALOMY)
Experiment: Pre-emergence herbicidal activity, glasshouse pot test
Format: in vivo
Details: Alopecurus myosuroides, 312 h; Rate 250 g/ha; pre-emergence spray; evaluated after 13 days; read-out: Pre-emergence activity ALOMY (100=total damage to plant; 0=no damage to plant)
MEASUREMENT_TYPE: pest or weed control at 250 g/ha

> print(dat)
                             compound.string  obs.value
 1  CCc1ccc(Oc2ccc(F)c(Cl)c2)cc1C1=C(O)CC(C)(C)CC1=O         0%
 2  CCc1ccc(Oc2ccc(Cl)cc2)cc1C1=C(O)CC2(CCOCC2)CC1=O        90%
 3  CCc1ccc(Oc2ccc(Cl)cn2)cc1C1=C(O)C(C)(C)OC(C)(C)C1=O        50%
 4  CCc1ccc(Oc2nc3ccc(F)cc3nc2Cl)cc1C1=C(O)C(C)(C)OC(C)(C)C1=O         0%
 5  CCc1ccc(Oc2nc3ccccc3s2)cc1C1=C(O)CC(C)(C)CC1=O        90%
 6  CCc1ccc(Oc2nc3ccc([N+](=O)[O-])cc3s2)cc1C1=C(O)CC(C)(C)CC1=O        50%
 7  CCc1ccc(Oc2nc3cc(Cl)ccc3s2)cc1C1=C(O)C(C)(C)OC(C)(C)C1=O        30%
 8  CCc1ccc(Oc2ccc(C(F)(F)F)cc2Cl)cc1C1=C(O)C(C)(C)OC(C)(C)C1=O        60%
 9  CCCc1cnc(Oc2ccc(CC)c(C3=C(O)C(C)(C)OC(C)(C)C3=O)c2)nc1        20%
10  CCc1ccc(Oc2ccc(Cl)c(F)c2)cc1C1=C(O)CC2(CCOCC2)CC1=O       100%
11  CCc1ccc(Oc2cnc3cc(F)ccc3n2)cc1C1=C(O)CC2(CCOCC2)CC1=O        90%
12  CCc1ccc(Oc2ccc(Cl)c(C(F)(F)F)c2)cc1C1=C(O)C(C)(C)OC(C)(C)C1=O        30%
13  CCc1ccc(Oc2ccc3ccccc3n2)cc1C1=C(O)CC(C)(C)CC1=O        90%
14  CCc1ccc(Oc2ccc(F)cc2F)cc1C1=C(O)C(C)(C)OC(C)(C)C1=O         0%
15  CCc1ccc(Oc2nc(F)c(F)c(C)c2F)cc1C1=C(O)C(C)(C)OC(C)(C)C1=O        80%
16  CCc1ccc(Oc2ccc(C(F)(F)F)cn2)cc1C1=C(O)CC2(CCOCC2)CC1=O       100%
17  CCc1ccc(Oc2cc(C)ccn2)cc1C1=C(O)C(C)(C)OC(C)(C)C1=O        60%
18  CCc1ccc(Oc2cnc3cc(Cl)ccc3n2)cc1C1=C(O)[C@@H]2CC[C@](C)(C1=O)C2(C)C        90%
19  CCc1ccc(Oc2cccc(C(F)(F)F)c2)cc1C1=C(O)C(C)(C)OC(C)(C)C1=O         0%
20  CCc1ccc(Oc2nc(F)c(Cl)c(OC)c2Cl)cc1C1=C(O)C(C)(C)OC(C)(C)C1=O         0%
21  CCc1ccc(Oc2ncc(Cl)cc2F)cc1C1=C(O)CC(C)(C)CC1=O       100%
22  CCc1ccc(Oc2ccc(Br)c(Cl)c2)cc1C1=C(O)[C@H]2CC[C@H](C2)C1=O        90%
23  CCc1ccc(Oc2ccc(Br)cc2F)cc1C1=C(O)[C@@H]2CC[C@](C)(C1=O)C2(C)C        60%
24  CCc1ccc(Oc2ccc([N+](=O)[O-])cc2C(F)(F)F)cc1C1=C(O)CC2(CCOCC2)CC1=O        40%
25  CCc1ccc(Oc2ccccc2Cl)cc1C1=C(O)C(C)(C)OC(C)(C)C1=O         0%
26  CCc1ccc(Oc2ncc(C(F)(F)F)cc2Cl)cc1C1=C(O)C(C)(C)OC(C)(C)C1=O       100%
27  CCc1ccc(Oc2nc3ccc(Cl)cc3s2)cc1C1=C(O)C(C)(C)OC(C)(C)C1=O        60%
28  CCc1ccc(Oc2ccc(C#N)cc2Cl)cc1C1=C(O)C(C)(C)OC(C)(C)C1=O        90%
29  CCc1ccc(Oc2nc3cc4c(cc3s2)OCCO4)cc1C1=C(O)C(C)(C)OC(C)(C)C1=O         0%
30  CCc1ccc(Oc2ccc([N+](=O)[O-])c(Cl)c2)cc1C1=C(O)[C@@H]2CC[C@](C)(C1=O)C2(C)C        70%
31  CCc1ccc(Oc2ccc(F)cc2Cl)cc1C1=C(O)CC(C)(C)CC1=O        60%
32  CCc1ccc(Oc2cc(F)cc(F)c2C#N)cc1C1=C(O)C(C)(C)OC(C)(C)C1=O         0%

Data credit: patent US8865623B2
